Target: FLAG-tagged full length PHD2 (Homo sapiens)
Construct: FLAG-tagged full length PHD2; FLAG
Assay: HIF-PHD2 time resolved fluorescence inhibition assay (HIF-1α peptide hydroxylation, VHL complex detection)
Conditions: 0.2 μM 2-oxoglutarate, 0.5 μM HIF-1α peptide, 2 hr at room temperature
Method: To each well of a 96-well plate was added […] of test compound in DMSO and 20 μl of assay buffer (50 mM Tris pH 7.4/0.01% Tween-20/0.1 mg/ml bovine serum albumin/10 μM ferrous sulfate/1 mM sodium ascorbate/20 μg/ml catalase) containing 0.15 μg/ml FLAG-tagged full length PHD2 expressed in and purified from baculovirus-infected Sf9 cells. […]
experimental_endpoint: IC50 (nM)

A selection of reference data follows.
molecular_string: O=C(O)CNC(=O)c1c(O)c2cccnc2n(Cc2cc(-c3ccccc3)no2)c1=O
IC50 / nM: 0.4

molecular_string: CC(C)(C)c1csc(Cn2c(=O)c(C(=O)NCC(=O)O)c(O)c3cccnc32)n1
IC50 / nM: 2

molecular_string: O=C(O)CNC(=O)c1c(O)c2cccnc2n(Cc2ccc(C(F)(F)F)cc2)c1=O
IC50 / nM: 2.1

(P) O=C(O)CNC(=O)c1c(O)c2cccnc2n(Cc2ccc(Cl)cc2)c1=O
(Q) CC[C@H](NC(=O)c1c(O)c2cccnc2n(Cc2ccc(C(F)(F)F)cc2)c1=O)C(=O)O
(R) O=C(O)CNC(=O)c1c(O)c2cccnc2n(Cc2noc(-c3ccccc3)n2)c1=O
(S) C[C@H](NC(=O)c1c(O)c2cccnc2n(Cc2nc3cc(Cl)ccc3s2)c1=O)C(=O)O
*Q* Arrange items by their IC50 values in increasing order. Use the labels to give the ranking in the order requested.
*A* R, P, S, Q

(a) O=C(O)CNC(=O)c1c(O)c2cccnc2n(Cc2nc(-c3ccccc3)no2)c1=O
(b) C[C@H](NC(=O)c1c(O)c2cccnc2n(Cc2ccc(C(F)(F)F)nc2)c1=O)C(=O)O
(c) C#CCn1c(=O)c(C(=O)NCC(=O)O)c(O)c2cccnc21
*Q* // sort entries: IC50, high to low Use the labels to give the ranking in the order requested.
*A* c, b, a
(c: 21 nM, b: 2.7 nM, a: 0.8 nM)

(I) C[C@H](NC(=O)c1c(O)c2cccnc2n(Cc2ccc(C(F)(F)F)cc2F)c1=O)C(=O)O
(II) NC(=O)c1ccc(Cn2c(=O)c(C(=O)NCC(=O)O)c(O)c3cccnc32)cc1
*Q* Field: entry with larger IC50 (options I / II ). Identify your pick by its label.
*A* I
(I: 8.2 nM, II: 1.2 nM)

(I) O=C(O)CNC(=O)c1c(O)c2cccnc2n(Cc2nnc(-c3ccccc3)o2)c1=O
(II) O=C(N[C@@H](CO)C(=O)O)c1c(O)c2cccnc2n(Cc2ccc(C(F)(F)F)cc2)c1=O
(III) C[C@@H](NC(=O)c1c(O)c2cccnc2n(Cc2ccc(C(F)(F)F)cc2)c1=O)C(=O)O
*Q* Arrange items by their IC50 values in increasing order. Use the labels to give the ranking in the order requested.
*A* I, II, III

* * *

Biological target: FLAG-tagged full length PHD2 (Homo sapiens, UniProt Q9GZT9)
Construct: FLAG-tagged full length PHD2; FLAG
Sequence (Q9GZT9 whole entry): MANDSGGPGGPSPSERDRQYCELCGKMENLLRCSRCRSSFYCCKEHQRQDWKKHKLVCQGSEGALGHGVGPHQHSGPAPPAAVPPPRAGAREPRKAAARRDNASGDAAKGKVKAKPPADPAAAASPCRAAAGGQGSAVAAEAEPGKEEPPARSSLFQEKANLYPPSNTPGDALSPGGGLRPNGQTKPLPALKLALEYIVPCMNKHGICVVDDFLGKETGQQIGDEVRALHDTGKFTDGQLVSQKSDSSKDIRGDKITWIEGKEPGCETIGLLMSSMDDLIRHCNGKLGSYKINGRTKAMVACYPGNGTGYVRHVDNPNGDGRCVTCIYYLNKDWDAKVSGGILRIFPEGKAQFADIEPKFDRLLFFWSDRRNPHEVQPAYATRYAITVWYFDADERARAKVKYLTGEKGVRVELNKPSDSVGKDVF
Assay: HIF-PHD2 time resolved fluorescence inhibition assay (HIF-1α peptide hydroxylation, VHL complex detection)
Details: 0.2 μM 2-oxoglutarate, 0.5 μM HIF-1α peptide, 2 hr at room temperature
experimental_endpoint: IC50 (nM)

A selection of reference data follows.
molecular_string: N#Cc1cnc2c(c1)c(O)c(C(=O)NCC(=O)O)c(=O)n2Cc1ccc(C(F)(F)F)cc1
IC50 / nM: 1.2

molecular_string: O=C(O)CNC(=O)c1c(O)c2cccnc2n(Cc2ccc(Br)cc2)c1=O
IC50 / nM: 1.9

molecular_string: O=C(O)CNC(=O)c1c(O)c2cccnc2n(Cc2ccc(C(F)(F)F)nc2)c1=O
IC50 / nM: 0.85

molecular_string: O=C(O)CNC(=O)c1c(O)c2cc(I)cnc2n(Cc2ccc(C(F)(F)F)cc2)c1=O
IC50 / nM: 1.3

molecular_string: COc1ccc2c(O)c(C(=O)NCC(=O)O)c(=O)n(Cc3ccc(C(F)(F)F)cc3)c2n1
IC50 / nM: 1.5

(P) O=C(O)CNC(=O)c1c(O)c2cccnc2n(Cc2nc3cc(Cl)ccc3s2)c1=O
(Q) O=C(O)C[C@H](NC(=O)c1c(O)c2cccnc2n(Cc2ccc(C(F)(F)F)cc2)c1=O)C(=O)O
(R) C[C@H](NC(=O)c1c(O)c2cccnc2n(Cc2nc3ccccc3s2)c1=O)C(=O)O
*Q* Arrange items by their IC50 values in increasing order. Use the labels to give the ranking in the order requested.
*A* P, R, Q
